Value source: patent US7256192B2

Tested on: common cutworm (Spodoptera litura)
Measurement Protocol: Insecticidal effect on common cutworm (Test Example 2)
Type: in vivo
Test Settings: 50 ppm; cabbage leaf immersed about 30 seconds; second-instar larvae; eight days after the inoculation; 25° C.
Text: Insecticidal effect on common cutworm (Spodoptera litura) A piece of cabbage leaf (cultivar: Shikidori) was immersed for about 30 seconds in a liquid chemical prepared by diluting a preparation containing each compound listed in Table 1 or Table 2, as an active ingredient to adjust the concentration to 50 ppm. […]
Measurement Kind: insecticidal activity (mortality rating)

# annotated cases, reported insecticidal activity (mortality rating) shown
| Molecule | insecticidal activity (mortality rating) |
| --- | --- |
| COc1ccc(CNC(=O)OCC(C)NC(=O)c2c(I)cccc2C(=O)Nc2ccc(OC(C(F)(F)F)C(F)(F)F)nc2C)cc1 (racemic) [2-72] | B or higher |
| Cc1cc(C(F)(C(F)(F)F)C(F)(F)F)ccc1NC(=O)c1cccc(I)c1C(=O)NC(C)CCOCC(C)C (centres unmarked) [compound 74] | B or higher |
| CC(=O)NCC(C)(C)NC(=O)c1c(I)cccc1C(=O)Nc1ccc(C(F)(C(F)(F)F)C(F)(F)F)cc1C [compound 28] | B or higher |
| CCOC(=O)NCC(C)(C)NC(=O)c1c(I)cccc1C(=O)Nc1ccc(C(F)(F)C(F)(F)F)cc1C [compound 19] | B or higher |
| CCNC(=O)OCC(C)NC(=O)c1c(I)cccc1C(=O)Nc1ccc(C(OCC)(C(F)(F)F)C(F)(F)F)cc1C (centres unmarked) [compound 279] | B or higher |

// query Given Cc1cc(C(F)(C(F)(F)F)C(F)(F)F)ccc1NC(=O)c1cccc(I)c1C(=O)NC(C)COC(=O)N(C)C (centres unmarked) [compound 88] , state its recorded insecticidal activity (mortality rating).
// result B or higher

// query Given CCNC(=O)OCC(C)NC(=O)c1c(I)cccc1C(=O)Nc1ccc(C(F)(F)C(F)(F)C(F)(F)F)cc1C (centres unmarked) [compound 272] , state its recorded insecticidal activity (mortality rating).
// result B or higher

// query Given COC(=O)NCC(C)NC(=O)c1c(I)cccc1C(=O)Nc1ccc(C(F)(C(F)(F)F)C(F)(F)F)cc1C (centres unmarked) [compound 22] , state its recorded insecticidal activity (mortality rating).
// result B or higher
